# System: RAW-Dual (murine macrophage reporter line)
# method.notes: viability score (confluency relative to resting cells, overnight) (fraction); higher = more viable, active = viable (0.7 or more)
# assay.conditions: modulator concentration 10 µM

[
  {
    "smiles.entry": "CCCCc1c(CCC)c(=N)c2ccccc2n1C.I",
    "viability score": 1.01
  },
  {
    "smiles.entry": "Clc1ccccc1C1Nc2cccc3cccc(c23)N1",
    "viability score": 0.97
  },
  {
    "smiles.entry": "CCc1ccc2oc(-c3ccc(NC(=O)c4ccc(C)c([N+](=O)[O-])c4)cc3)nc2c1",
    "viability score": 1.01
  },
  {
    "smiles.entry": "Cl.Cl.O=C1c2c(O)ccc(O)c2C(=O)c2c(NCCNCCO)ccc(NCCNCCO)c21",
    "viability score": 0.388
  },
  {
    "smiles.entry": "COc1ccc(Cl)c(Nc2nc3ccccc3nc2NS(=O)(=O)c2cccc(NC(=O)C(C)(C)N)c2)c1",
    "viability score": 0.592
  }
]

----------
Below: a set of entries, each annotated with reported IRF reporter.
# Test system: RAW-Dual (murine macrophage reporter line)
# method.notes: IRF reporter (Lucia luciferase) activity fold change vs agonist alone; higher = enhanced IRF activity
# assay.conditions: modulator concentration 10 µM; agonist: 3'3'-cGAMP 10 ug/mL

[
  {
    "molecule": "CCCOc1cccc(C(=O)Nc2cccc(S(N)(=O)=O)c2)c1",
    "system": "RAW-Dual (murine macrophage reporter line)",
    "IRF reporter": 0.918
  },
  {
    "molecule": "CCN(CC)c1ccc(C=NNC(=O)c2ccccc2C)c(O)c1",
    "system": "RAW-Dual (murine macrophage reporter line)",
    "IRF reporter": 0.442
  },
  {
    "molecule": "C/C(O)=C(\\C#N)C(=O)Nc1ccc(C(F)(F)F)cc1",
    "system": "RAW-Dual (murine macrophage reporter line)",
    "IRF reporter": 0.855
  },
  {
    "molecule": "Cc1ccc(C(=O)N(CCCN)[C@@H](c2nc3cc(Cl)ccc3c(=O)n2Cc2ccccc2)C(C)C)cc1",
    "system": "RAW-Dual (murine macrophage reporter line)",
    "IRF reporter": 0.209
  },
  {
    "molecule": "Cc1ccc2c(c1)C(=O)CC(O)(C(F)F)O2 (stereo not given)",
    "system": "RAW-Dual (murine macrophage reporter line)",
    "IRF reporter": 0.764
  },
  {
    "molecule": "Nc1ncn(C2OC(CO)C(O)C2O)c(=O)n1 (stereo not given)",
    "system": "RAW-Dual (murine macrophage reporter line)",
    "IRF reporter": 0.541
  },
  {
    "molecule": "COc1cc(Br)c(C=C(C#N)c2nn(-c3ccccc3)c(N)c2C#N)cc1OC",
    "system": "RAW-Dual (murine macrophage reporter line)",
    "IRF reporter": 0.936
  },
  {
    "molecule": "Cc1cccc(Cn2c(=O)c3nscc3n(Cc3ccc(F)c(F)c3)c2=O)c1",
    "system": "RAW-Dual (murine macrophage reporter line)",
    "IRF reporter": 0.997
  },
  {
    "molecule": "Cc1cccc(C)c1N(CC(=O)Nc1ccc(-c2ncon2)cc1)C(=O)C1CCS(=O)(=O)CC1",
    "system": "RAW-Dual (murine macrophage reporter line)",
    "IRF reporter": 0.976
  },
  {
    "molecule": "Cc1ccc(Sc2c(C)nn(-c3ccccc3)c2OC(=O)C(C)(C)C)cc1",
    "system": "RAW-Dual (murine macrophage reporter line)",
    "IRF reporter": 0.557
  }
]

----------
# Test system: RAW-Dual (murine macrophage reporter line)
# method.notes: NF-kB reporter (SEAP) activity fold change vs agonist alone; higher = enhanced NF-kB activity
# assay.conditions: modulator concentration 10 µM; agonist: MPLA […]
Think of 1 as a floor: if NF-kB reporter stands on it or above, it is true; beneath it, false.

[
  {
    "compound": "Cl.Cl.Clc1ccc(Nc2nnc(Cc3ccncc3)c3ccccc23)cc1",
    "class.assignment": "true"
  },
  {
    "compound": "CCCC1=NN(c2ccc([N+](=O)[O-])cc2)C(=O)C1=CNC1CC1",
    "class.assignment": "false"
  },
  {
    "compound": "Cc1c(C)c2c(c(C)c1O)CCC(C)(CCCC(C)CCCC(C)CCCC(C)C)O2 (centres undefined)",
    "class.assignment": "true"
  },
  {
    "compound": "COC(=O)C1C(=O)C(=CNc2ccccc2C)C(=O)CC1(C)C (centres undefined)",
    "class.assignment": "true"
  },
  {
    "compound": "O=C1CCC(N2C(=O)c3ccccc3C2=O)C(=O)N1 (centres undefined)",
    "class.assignment": "true"
  },
  {
    "compound": "N#CC(=Cc1cc(Cl)ccc1OCc1c(F)cccc1Cl)c1nn(CCO)c(N)c1C#N",
    "class.assignment": "false"
  },
  {
    "compound": "NCC(=O)O",
    "class.assignment": "false"
  },
  {
    "compound": "CCOc1ccc(CN(CCc2ccc3c(c2)OCO3)Cc2ccc3ccccc3c2)cc1",
    "class.assignment": "false"
  },
  {
    "compound": "CN1CCc2c(sc3[nH]c(=S)n(CCc4ccccc4)c(=O)c23)C1",
    "class.assignment": "false"
  },
  {
    "compound": "O=C1OC(c2ccc3ccccc3c2)=NC1=Cc1ccc(Br)c([N+](=O)[O-])c1",
    "class.assignment": "false"
  },
  {
    "compound": "CNC(=O)c1ccc2cc(C3(O)CCn4cncc43)ccc2c1 (centres undefined)",
    "class.assignment": "false"
  },
  {
    "compound": "COc1cc2nc(N3CCN(C(=O)C4COc5ccccc5O4)CC3)nc(N)c2cc1OC (centres undefined)",
    "class.assignment": "true"
  },
  {
    "compound": "C(#Cc1ccc(C=Nc2nccs2)cc1)c1ccccc1",
    "class.assignment": "false"
  },
  {
    "compound": "COc1ccc(CCC(=O)NCc2nc(N(C)C)nc(N3CCCCC3)n2)cc1",
    "class.assignment": "false"
  },
  {
    "compound": "C[C@@H](O[C@H]1OCCN(Cc2nc(=O)[nH][nH]2)[C@H]1c1ccc(F)cc1)c1cc(C(F)(F)F)cc(C(F)(F)F)c1",
    "class.assignment": "false"
  },
  {
    "compound": "O=C(CC(c1ccccc1)c1ccccc1)Nc1ccc(CC(=O)N2CCC(O)CC2)cc1",
    "class.assignment": "false"
  },
  {
    "compound": "Cc1ccc(Cn2c(N)nc3ccccc32)cc1",
    "class.assignment": "true"
  },
  {
    "compound": "CC(O)C(=O)O.CN1CCN(c2ccc3nc(-c4c(N)c5c(F)cccc5[nH]c4=O)[nH]c3c2)CC1",
    "class.assignment": "false"
  },
  {
    "compound": "O=C(Nc1cc(N2CCN(Cc3ccccc3)CC2)ncn1)c1ccc2ccccc2n1",
    "class.assignment": "false"
  },
  {
    "compound": "N=C(N)Nc1nc(CSCCC(=N)NS(N)(=O)=O)cs1",
    "class.assignment": "true"
  },
  {
    "compound": "CC12CCC3c4ccc(O)cc4CCC3C1CCC2OC(=O)CCC1CCCC1 (centres undefined)",
    "class.assignment": "false"
  },
  {
    "compound": "CCOC(=O)C(Oc1ccc2c(c1)oc(=O)c1cc(OC)ccc12)c1ccccc1 (centres undefined)",
    "class.assignment": "false"
  },
  {
    "compound": "O=C(CCCn1c(=O)[nH]c2ccc(Br)cc2c1=O)NCC1CCCO1 (centres undefined)",
    "class.assignment": "false"
  },
  {
    "compound": "Cc1c(Cl)cccc1S(=O)(=O)NCc1ccnc(N2CCCC2=O)c1",
    "class.assignment": "false"
  },
  {
    "compound": "COc1ccc(N(CC(=O)NCCSCc2ccccc2)S(C)(=O)=O)cc1Cl",
    "class.assignment": "false"
  },
  {
    "compound": "CC1=CC(=NS(=O)(=O)c2ccc(C)cc2)C=C(Cl)C1=O",
    "class.assignment": "false"
  },
  {
    "compound": "CN1CCN(C(c2ccccc2)c2ccccc2)CC1.Cl.Cl",
    "class.assignment": "false"
  },
  {
    "compound": "CCOC(=O)c1sc(NC(=O)CSc2nc3ccccc3o2)c(C(=O)OCC)c1C",
    "class.assignment": "true"
  },
  {
    "compound": "CCOc1nccn2c(CNC(=O)c3cccnc3)nnc12",
    "class.assignment": "true"
  },
  {
    "compound": "CCC(C)(Oc1ccc(C2(c3ccc(OC(C)(CC)C(=O)O)cc3)CCCCC2)cc1)C(=O)O (centres undefined)",
    "class.assignment": "false"
  },
  {
    "compound": "O=C(Oc1ccc(O)c(CO)c1)c1ccccc1",
    "class.assignment": "true"
  },
  {
    "compound": "Cn1cc(-c2cc(CNC(=O)c3cncc(F)c3)ccn2)cn1",
    "class.assignment": "false"
  },
  {
    "compound": "CCOC(=O)C(CCc1ccccc1)NC(C)C(=O)N1C(C(=O)O)CC2CCCCC21 (centres undefined)",
    "class.assignment": "true"
  }
]
